assay: Stability of cannabinoid and Vitamin E components of Beverage 1 (AB White) stored at 8° C. and 21-25° C., LCMSMS over 570 days; format: physicochemical; conditions: beverage stored at 8° C., day 19
measuredParameter: Stability in AB White, 8° C. (content by LCMSMS) (µg/mL)

{"columns": ["compound", "unitDescriptor", "numericResult"],
 "data": [
  ["CCCCCc1cc(O)c(C/C=C(\\C)CCC=C(C)C)c(O)c1 [CBG, cannabigerol]", "µg/mL", 4.83],
  ["CCCCCc1cc(O)c2c(c1)OC(C)(C)[C@@H]1CCC(C)=C[C@@H]21 [D9 THC, delta-9-tetrahydrocannabinol, reference compound]", "µg/mL", 12.11],
  ["CCCCCc1cc(O)c2c(c1)OC(C)(CCC=C(C)C)C=C2 (stereo not shown) [CBC, cannabichromene]", "µg/mL", 0.317],
  ["CCCCCc1cc(O)c2c(c1)OC(C)(C)c1ccc(C)cc1-2 [CBN, cannabinol]", "µg/mL", 2.71],
  ["C=C(C)[C@@H]1CCC(C)=C[C@H]1c1c(O)cc(CCCCC)cc1O [CBD, cannabidiol, reference compound]", "µg/mL", 28.36],
  ["C=C(C)[C@@H]1CCC(C)=C[C@H]1c1c(O)cc(CCCCC)c(C(=O)O)c1O [CBDA, cannabidiolic acid]", "µg/mL", 1.74],
  ["CCCCCc1cc2c(c(O)c1C(=O)O)[C@@H]1C=C(C)CC[C@H]1C(C)(C)O2 [D9 THCA, delta-9-tetrahydrocannabinolic acid]", "µg/mL", 0.959]
]}

---

The reader will find reported Stability in AB White, 8° C. (content by LCMSMS) values listed item by item below.
assay: Stability of cannabinoid and Vitamin E components of Beverage 1 (AB White) stored at 8° C. and 21-25° C., LCMSMS over 570 days; assay type: physicochemical; conditions: beverage stored at 8° C., day 30
measuredParameter: Stability in AB White, 8° C. (content by LCMSMS) (µg/mL)

{"columns": ["molecule", "numericResult"],
 "data": [
  ["CCCCCc1cc(O)c2c(c1)OC(C)(CCC=C(C)C)C=C2 (stereo not drawn) [CBC, cannabichromene]", 0.317],
  ["C=C(C)[C@@H]1CCC(C)=C[C@H]1c1c(O)cc(CCC)cc1O [CBDV, cannabidivarin]", 0.148],
  ["CCCCCc1cc(O)c2c(c1)OC(C)(C)c1ccc(C)cc1-2 [CBN, cannabinol]", 2.78]
]}

---

The reader will find reported Stability in Powder Concentrate (content by LCMSMS) values listed item by item below.
type: physicochemical; settings: stored at room temperature (21-25° C.), day 29
measuredParameter: Stability in Powder Concentrate (content by LCMSMS) (mg/g powder)

{"columns": ["compound", "unitDescriptor", "numericResult"],
 "data": [
  ["CC(=O)Oc1c(C)c(C)c2c(c1C)CCC(C)(CCC[C@H](C)CCC[C@H](C)CCCC(C)C)O2 (stereo partly drawn) [α-Tocopheryl acetate]", "mg/g powder", 2.21],
  ["CCCCCc1cc(O)c2c(c1)OC(C)(C)c1ccc(C)cc1-2 [CBN, cannabinol]", "mg/g powder", 0.484],
  ["C=C(C)[C@@H]1CCC(C)=C[C@H]1c1c(O)cc(CCCCC)c(C(=O)O)c1O [CBDA, cannabidiolic acid]", "mg/g powder", 0.426],
  ["CCCCCc1cc(O)c2c(c1)OC1(C)CCC3C1C2C3(C)C (stereo not shown) [CBL, cannabicyclol]", "mg/g powder", 0.048],
  ["C=C(C)[C@@H]1CCC(C)=C[C@H]1c1c(O)cc(CCC)cc1O [CBDV, cannabidivarin]", "mg/g powder", 0.049],
  ["CCCCCc1cc(O)c2c(c1)OC(C)(C)[C@@H]1CCC(C)=C[C@@H]21 [D9 THC, delta-9-tetrahydrocannabinol, reference compound]", "mg/g powder", 2.47],
  ["CCCCCc1cc(O)c(C/C=C(\\C)CCC=C(C)C)c(O)c1 [CBG, cannabigerol]", "mg/g powder", 1.10],
  ["CCCCCc1cc(O)c2c(c1)OC(C)(CCC=C(C)C)C=C2 (stereo not shown) [CBC, cannabichromene]", "mg/g powder", 0.069],
  ["CCCCCc1cc2c(c(O)c1C(=O)O)[C@@H]1C=C(C)CC[C@H]1C(C)(C)O2 [D9 THCA, delta-9-tetrahydrocannabinolic acid]", "mg/g powder", 0.152],
  ["Cc1c(C)c2c(c(C)c1OC(=O)CCC(=O)O)CC[C@@](C)(CCC[C@H](C)CCC[C@H](C)CCCC(C)C)O2 [α-Tocopheryl succinate]", "mg/g powder", 1.87],
  ["CCCc1cc(O)c2c(c1)OC(C)(C)[C@@H]1CCC(C)=C[C@@H]21 [THCV, delta-9-tetrahydrocannabivarin]", "mg/g powder", 0.706],
  ["Cc1c(C)c2c(c(C)c1O)CC[C@@](C)(CCC[C@H](C)CCC[C@H](C)CCCC(C)C)O2 [α-Tocopherol]", "mg/g powder", 4.85],
  ["C=C(C)[C@@H]1CCC(C)=C[C@H]1c1c(O)cc(CCCCC)cc1O [CBD, cannabidiol, reference compound]", "mg/g powder", 5.97]
]}
